Data origin: the supplement of paper PMC10567573

B1: PPP2R2C (parent)
chain: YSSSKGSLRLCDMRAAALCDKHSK

Variants of: B1
Assay: protein stability index of a GFP-peptide fusion (GPS, HEK-293T) (PSI 1-6); higher = more stable;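 note: lentivirally expressed fusions sorted by FACS into six bins by GFP to DsRed ratio, PSI derived from sequencing read proportions per bin multiplied by bin number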
Settings: c terminus: a fixed tail appended
Rule: criterion met for protein stability index not less than 2, criterion not met for anything less.

Answered cases to consult:
YSSSKGSLRLCPMRAAALCDKHSK
criterion met
YSSSKGSLRLCDMRALALCDKHSK
criterion not met
YSSSMGSLRLCDMRAAALCDKHSK
criterion met
YNSSKGSLRLCDMRAAALCDKHSK
criterion met
YSSSKGSLRLCDMRQAALCDKHSK
criterion not met
YSSSKGSLRLCDFRAAALCDKHSK
criterion not met
YSSSKGSLRLCDHRAAALCDKHSK
criterion not met
YSDSKGSLRLCDMRAAALCDKHSK
criterion met
YSSSKGSLRLCDMRAAALCDKHSD
criterion met
YSSSKGSLRCCDMRAAALCDKHSK
criterion met

Request: Check this variant for protein stability index at or above 2: YSSSKGSLRLCFMRAAALCDKHSK
Result: criterion not met

Request: Exam item: decide whether the reported protein stability index for PSSSKGSLRLCDMRAAALCDKHSK is at least 2.
Result: criterion met

Request: Is reported protein stability index greater than or equal to 2 here: MSSSKGSLRLCDMRAAALCDKHSK
Result: criterion met

Request: Quick check: does YISSKGSLRLCDMRAAALCDKHSK have protein stability index greater than or equal to 2?
Result: criterion not met

Request: Determine whether measured protein stability index meets or exceeds 2 for YSSSKFSLRLCDMRAAALCDKHSK
Result: criterion not met

Request: Check this variant for protein stability index at or above 2: YSHSKGSLRLCDMRAAALCDKHSK
Result: criterion met

Request: Form field: protein stability index at least 2? Entry: KSSSKGSLRLCDMRAAALCDKHSK
Result: criterion met

Request: Confirm if protein stability index reported for the variant YSSSKGSLRLCDMRAAALCDRHSK is 2 or above.
Result: criterion not met
